Where do these numbers come from? They come from patent US9670203B2.

Entries annotated with measured IC50
Molecular target: B-Raf (V600E) (Homo sapiens (Human), UniProt P15056, V600E)
Sequence (P15056 whole entry V600E): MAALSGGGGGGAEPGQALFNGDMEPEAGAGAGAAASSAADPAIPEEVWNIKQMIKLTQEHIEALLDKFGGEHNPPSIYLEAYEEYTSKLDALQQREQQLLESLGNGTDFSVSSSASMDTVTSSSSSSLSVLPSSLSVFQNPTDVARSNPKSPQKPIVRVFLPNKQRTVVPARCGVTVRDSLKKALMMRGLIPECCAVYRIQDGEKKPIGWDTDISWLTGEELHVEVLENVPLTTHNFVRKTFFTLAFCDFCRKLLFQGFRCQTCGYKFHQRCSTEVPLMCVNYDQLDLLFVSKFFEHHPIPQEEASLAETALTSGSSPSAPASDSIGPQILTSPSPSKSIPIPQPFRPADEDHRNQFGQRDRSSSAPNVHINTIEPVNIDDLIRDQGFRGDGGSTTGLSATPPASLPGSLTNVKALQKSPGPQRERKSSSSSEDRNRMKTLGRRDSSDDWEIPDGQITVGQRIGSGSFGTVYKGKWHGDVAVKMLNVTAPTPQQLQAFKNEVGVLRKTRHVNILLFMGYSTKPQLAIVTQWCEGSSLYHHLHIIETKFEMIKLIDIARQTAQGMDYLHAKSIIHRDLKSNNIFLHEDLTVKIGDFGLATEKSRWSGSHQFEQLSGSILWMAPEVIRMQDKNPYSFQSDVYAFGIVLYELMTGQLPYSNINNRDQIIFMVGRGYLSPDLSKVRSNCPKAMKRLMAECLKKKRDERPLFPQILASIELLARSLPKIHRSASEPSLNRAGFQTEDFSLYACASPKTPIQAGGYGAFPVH
Assay: Raf IC50 assay, time-resolved fluorescence energy transfer, B-Raf (V600E)
Type: biochemical
Settings: 0.1 mM ATP; read-out: IC50 (nM) B_Raf^V600E
assayEndpoint: IC50 (nM)

1. O=C(Nc1ccc(F)c(F)c1)N[C@@H]1[C@H]2Oc3ccc(Oc4ccncn4)cc3[C@@H]12	111
2. O=C1CCc2c(Oc3ccc4c(c3)[C@H]3[C@H](NC(=O)NCc5cccc(F)c5)[C@H]3O4)ccnc2N1	0.77
3. O=C1CCc2c(Oc3ccc4c(c3)[C@H]3[C@H](NC(=O)Nc5ccc(C(F)(F)F)cc5)[C@H]3O4)ccnc2N1	6.9
4. O=C1CCc2c(Oc3ccc4c(c3)[C@H]3[C@H](NC(=O)NCc5ccc(C(F)(F)F)cc5)[C@H]3O4)ccnc2N1	158
5. O=C1CCc2c(Oc3ccc4c(c3)[C@H]3[C@H](NC(=O)NCc5cccc(C(F)(F)F)c5)[C@H]3O4)ccnc2N1	1.9
6. O=C1CCc2c(Oc3ccc4c(c3)[C@H]3[C@H](NC(=O)Nc5ccc(F)cc5)[C@H]3O4)ccnc2N1	0.8
7. O=C1CCc2c(Oc3ccc4c(c3)[C@H]3[C@H](NC(=O)Nc5cc(F)cc(F)c5F)[C@H]3O4)ccnc2N1	2.9
8. O=C(Nc1cc(F)c(F)cc1F)N[C@@H]1[C@H]2Oc3ccc(Oc4ccnc5c4COC(=O)N5)cc3[C@@H]12	2.6
9. CNC(=O)c1cc(Oc2ccc3c(c2)[C@H]2[C@H](NC(=O)Nc4ccc(F)c(C(F)(F)F)c4)[C@H]2O3)ccn1	33

* * *

Biological target: B-Raf (V600E) (Homo sapiens (Human), UniProt P15056, V600E)
Assay: Raf IC50 assay, time-resolved fluorescence energy transfer, B-Raf (V600E)
Format: biochemical
Details: 0.1 mM ATP; read-out: IC50 (nM) B_Raf^V600E
Field 'label' (enum: Fulfilled / Not fulfilled). Set to Fulfilled when IC50 is strictly under 6 nM; else Not fulfilled.

1) COc1ccc(NC(=O)N[C@@H]2[C@H]3Oc4ccc(Oc5ccnc6c5CCC(=O)N6)cc4[C@@H]23)cc1	Fulfilled
2) O=C1CCc2c(Oc3ccc4c(c3)[C@H]3[C@H](NC(=O)Nc5ccccc5OC(F)(F)F)[C@H]3O4)ccnc2N1	Not fulfilled
3) CN(C)Cc1ccc(NC(=O)N[C@@H]2[C@H]3Oc4ccc(Oc5ccnc6c5CCC(=O)N6)cc4[C@@H]23)cc1	Not fulfilled
4) O=C1CCc2c(Oc3ccc4c(c3)[C@H]3[C@H](NC(=O)Nc5ccccc5F)[C@H]3O4)ccnc2N1	Fulfilled
5) O=C1CCc2c(Oc3ccc4c(c3)[C@H]3[C@H](NC(=O)Nc5ccc(F)cc5F)[C@H]3O4)ccnc2N1	Fulfilled
6) Cc1ccncc1NC(=O)N[C@@H]1[C@H]2Oc3ccc(Oc4ccnc5c4CCC(=O)N5)cc3[C@@H]12	Fulfilled
7) CC(C)(C)CNC(=O)N[C@@H]1[C@H]2Oc3ccc(Oc4ccnc5c4CCC(=O)N5)cc3[C@@H]12	Fulfilled
8) Cc1cc(Cl)ccc1NC(=O)N[C@@H]1[C@H]2Oc3ccc(Oc4ccnc5c4CCC(=O)N5)cc3[C@@H]12	Fulfilled
9) O=C1CCc2c(Oc3ccc4c(c3)[C@H]3[C@H](NC(=O)Nc5ccc(Cl)c(C(F)(F)F)c5)[C@H]3O4)ccnc2N1	Not fulfilled
10) O=C1CCc2c(Oc3ccc4c(c3)[C@H]3[C@H](NC(=O)NC5CC5)[C@H]3O4)ccnc2N1	Not fulfilled
11) O=C1CCc2c(Oc3ccc4c(c3)[C@H]3[C@H](NC(=O)NCc5ccc(F)cc5)[C@H]3O4)ccnc2N1	Fulfilled
12) O=C1CCc2c(Oc3ccc4c(c3)[C@@H]3[C@@H](NC(=O)Nc5cc(C(F)(F)F)ccn5)[C@@H]3O4)ccnc2N1	Fulfilled
13) CCN1CCN(Cc2ccc(NC(=O)N[C@@H]3[C@H]4Oc5ccc(Oc6ccnc7c6CCC(=O)N7)cc5[C@@H]34)cc2C(F)(F)F)CC1	Not fulfilled
14) COc1ccc(NC(=O)N[C@@H]2[C@H]3Oc4ccc(Oc5ccnc6c5CCC(=O)N6)cc4[C@@H]23)cc1OC	Fulfilled
